- System: hSSPN-EGFP myotubes (human sarcospan promoter reporter in C2C12)
- ASSAY PROTOCOL: hSSPN-EGFP reporter myotube assay (high-content imaging)
- Type: cell-based, murine
- CONDITION NOTES: retest of screen hits at 5.5 μM, Plate 2, n=24 per plate
// hSSPN-EGFP RFU, Plate 2 lookup, one value per entry
The figure you give is taken to be in RFU; do not add the unit.

COMPOUND	hSSPN-EGFP RFU, Plate 2 [RFU]
O=C1Nc2ccc(I)cc2/C1=C/c1cc(Br)c(O)c(Br)c1	1.2
COC(=O)C1=C(C)NC(C)=C(C(=O)OC(C)C)C1c1cccc2nonc12 (stereo not shown)	1.4

hSSPN-EGFP RFU, Plate 2 lookup needed for CCCCN1CCCC1CNC(=O)c1cc(C#N)c2ccccc2c1OC (stereo not shown) [Nafadotride] , thanks.
1.0

Again, but for COC(=O)C1=C(C#N)NC(C)=C(C(=O)OC(C)C)C1c1cccc([N+](=O)[O-])c1 (stereo not shown)
1.5

Again, but for CC(=O)OC1CN2CCC1CC2 (stereo not shown) [Aceclidine, 1-Azabicyclo[2.2.2]oct-3-yl acetate]
1.1

Again, but for CC(C)NCC(O)c1ccc(O)c(O)c1 (stereo not shown)
1.1

Again, but for CCOC(=O)C1=C(C)NC(C)=C(C(=O)OCC)C1c1ccccc1/C=C/C(=O)OC(C)(C)C
1.2

Again, but for COC(=O)N=N/C=C1\C=[N+]([O-])c2ccccc2N1O
1.1

Again, but for CCOC(=O)C1=C(C)NC(C)=C(C(=O)OC)C1c1cccc(Cl)c1Cl (stereo not shown)
1.4

Again, but for C[C@]12CC[C@H]3[C@@H](CCC4=CC(=O)CC[C@@H]43)[C@@H]1CC[C@@H]2O
1.1

Again, but for Nc1nc(=O)c2ncn(COCCO)c2[nH]1
1.0

Again, but for COC(=O)C1=C(C)NC(C)=C(C(=O)OC)C1c1ccccc1[N+](=O)[O-]
1.0

Again, but for O=c1[nH]c(=O)c2nc3ccccc3nc2[nH]1 [Alloxazine, 1H-benzo[g]pteridine-2,4-dione]
1.1
